- Tested on: rodent lifetime carcinogenesis bioassay, tumor incidence TD50
- TEST_DESCRIPTION: carcinogenic potency in animals, long-term in vivo studies, CPDB compilation (AID 1745844)
- APPLIED_CONDITIONS: mouse; strain Swiss albino; females; in drinking water; site: lung; lesion: adenocarcinoma; dosed 100 weeks; study length 100 weeks
EXPERIMENTAL_READOUT: TD50 (mg/kg/day)

>>> numeric_value("C=CCN(N)CC=C")
112

* * *

- Tested on: rodent lifetime carcinogenesis bioassay, tumor incidence TD50
- TEST_DESCRIPTION: carcinogenic potency in animals, long-term in vivo studies, CPDB compilation (AID 1745844)
- APPLIED_CONDITIONS: rat; strain Sprague-Dawley; males; by gavage; site: mammary tissue, wider than the gland; lesion: adenocarcinoma; dosed 167 weeks; study length 167 weeks
EXPERIMENTAL_READOUT: TD50

>>> result("CC/C(=C(\\c1ccccc1)c1ccc(OCCN(C)C)cc1)c1ccccc1")
"247 mg/kg/day"

* * *

- Tested on: rodent lifetime carcinogenesis bioassay, tumor incidence TD50
- TEST_DESCRIPTION: carcinogenic potency in animals, long-term in vivo studies, CPDB compilation (AID 1745844)
- APPLIED_CONDITIONS: rat; strain Fischer 344; males; in feed; site: any site (literature study); lesion: several types; types named in the paper; dosed 99 weeks; study length 99 weeks
EXPERIMENTAL_READOUT: TD50 (mg/kg/day)

>>> numeric_value("CCCCCCCC/C=C/CCCCCCCC(=O)OCCOCC(OCCO)C1OCC(OCCO)C1OCCO (stereo unspecified)")
3290

* * *

- Test system: rodent lifetime carcinogenesis bioassay, tumor incidence TD50
- TEST_DESCRIPTION: carcinogenic potency in animals, long-term in vivo studies, CPDB compilation (AID 1745844)
- APPLIED_CONDITIONS: rat; strain Charles River CD (Sprague-Dawley); females; inhaled; site: liver; lesion: hepatocellular carcinoma; dosed 104 weeks; study length 104 weeks
EXPERIMENTAL_READOUT: TD50

>>> result("C=CN1CCCC1=O")
"12.3 mg/kg/day"

* * *

Listing of entries alongside the reported TD50.
- Test system: rodent lifetime carcinogenesis bioassay, tumor incidence TD50
- TEST_DESCRIPTION: carcinogenic potency in animals, long-term in vivo studies, CPDB compilation (AID 1745844)
- APPLIED_CONDITIONS: mouse; strain B6C3F1; females; in feed; site: any site (literature study); lesion: several types; types named in the paper; dosed 105 weeks; study length 105 weeks
EXPERIMENTAL_READOUT: TD50 (mg/kg/day)

>>> numeric_value("Brc1cc(Br)c(-c2cc(Br)c(Br)cc2Br)cc1Br")
0.362
>>> numeric_value("O=C1OC(c2ccc(O)cc2)(c2ccc(O)cc2)c2ccccc21")
1740
>>> numeric_value("[Cl][Sn][Cl]")
386

* * *

- System: rodent lifetime carcinogenesis bioassay, tumor incidence TD50
- TEST_DESCRIPTION: carcinogenic potency in animals, long-term in vivo studies, CPDB compilation (AID 1745844)
- APPLIED_CONDITIONS: mouse; strain B6C3F1; males; inhaled; site: liver; lesion: hepatocellular adenoma; dosed 80 weeks; study length 96 weeks
EXPERIMENTAL_READOUT: TD50

>>> result("C=CC(=C)C")
"1760 mg/kg/day"
